We begin with a simple list: items and their reported Max Plateau.
Test system: alpha-MyHC
Assay: alpha-MyHC cytoblot process in neonatal rat ventricular myocytes (NRVM)
Type: cell-based

The examples below pair each entry with its known result.
CCC1=C(C(=O)OCCNC(=O)OC(C)(C)C)C(c2ccccc2F)c2c(sc(C(=O)c3ccc(Cl)c(Cl)c3)c2N)N1 (centres unmarked) : 128.75 ± 8.38
CC1=C(C(=O)OCCNC(=O)OC(C)(C)C)C(c2ccccc2F)c2c(sc(C(=O)c3ccc(Cl)c(Cl)c3)c2N)N1 (centres unmarked) : 213.11 ± 12.55
CCC1=C(C(=O)OCCN)C(c2ccccc2F)c2c(sc(C(=O)c3ccc(Cl)c(Cl)c3)c2N)N1 (centres unmarked) : 156.50 ± 9.76
CC1=C(C(=O)OCCN)C(c2ccccc2)c2c(sc(C(=O)c3ccc(Cl)c(Cl)c3)c2N)N1 (racemic) : 208.56 ± 23.45

Now turn to the next compound.
Inquiry: Return Max Plateau (reported value) for this compound: CC(=O)NCCOC(=O)C1=C(C)Nc2sc(C(=O)c3ccc(Cl)c(Cl)c3)c(N)c2C1c1ccccc1 (centres unmarked)
Reply text: 100.00 ± 0.00

---

Test system: alpha-MyHC
Assay: alpha-MyHC cytoblot process in neonatal rat ventricular myocytes (NRVM)
Format: cell-based
Details: Table 1; NRVM, 72 hours, alpha-MyHC cytoblot; mean ± spread
property.label: EC50 (nM)
Give the quantity in nM, number only.

The examples below pair each entry with its known result.
CCCC(=O)C1=C(CCC)Nc2sc(C(=O)c3ccc(Cl)cc3Cl)c(N)c2C1c1ccccc1F (centres unmarked) : 198
CC(=O)C1=C(C)Nc2sc(C(=O)c3ccc(Cl)c(Cl)c3)c(N)c2C1c1ccc[nH]1 (centres unmarked) : 4590
CC(=O)C1=C(C)Nc2sc(C(=O)c3ccc(Cl)c(Cl)c3)c(N)c2C1c1ccc(O)cc1 (centres unmarked) : 339

Inquiry: Return EC50 (reported value) for this compound: CC(=O)C1=C(C)Nc2sc(C(=O)c3ccc(Cl)c(Cl)c3)c(N)c2C1c1ccc(Cl)c(Cl)c1 (centres unmarked)
Reply text: 116

Inquiry: Return EC50 (reported value) for this compound: CCCC(=O)C1=C(CCC)Nc2sc(C(=O)c3cc(Cl)ccc3Cl)c(N)c2C1c1ccccc1F (centres unmarked)
Reply text: 50.5

Inquiry: Return EC50 (reported value) for this compound: CCCC(=O)C1=C(CCC)Nc2sc(C(=O)c3ccc(Cl)c(Cl)c3)c(N)c2C1c1ccccc1F (centres unmarked)
Reply text: 217

Inquiry: Return EC50 (reported value) for this compound: CCC(=O)C1=C(CC)Nc2sc(C(=O)c3cc(F)cc(F)c3)c(N)c2C1c1ccccc1 (centres unmarked)
Reply text: 24.2

Inquiry: Return EC50 (reported value) for this compound: CCC(=O)C1=C(CC)Nc2sc(C(=O)c3ccc4c(c3)OCO4)c(N)c2C1c1ccccc1F (centres unmarked)
Reply text: 57.5

Inquiry: Return EC50 (reported value) for this compound: CC(=O)C1=C(C)Nc2sc(C(=O)c3ccccc3)c(N)c2C1C1CCCCC1 (centres unmarked)
Reply text: 943

Inquiry: Return EC50 (reported value) for this compound: CCCC(=O)C1=C(CCC)Nc2sc(C(=O)c3ccc(F)c(F)c3)c(N)c2C1c1ccccc1 (centres unmarked)
Reply text: 610

Inquiry: Return EC50 (reported value) for this compound: CCC(=O)C1=C(CC)Nc2sc(C(=O)c3ccccc3)c(N)c2C1c1ccccc1F (centres unmarked)
Reply text: 6.77

---

Tested on: alpha-MyHC
Assay: alpha-MyHC cytoblot process in neonatal rat ventricular myocytes (NRVM)
Assay type: cell-based
Settings: Table 1; NRVM, 72 hours, alpha-MyHC cytoblot; mean ± spread
Description: In vitro activity of each compound is measured using the alpha-MyHC cytoblot process. […] Following incubation with the secondary antibody, wells are washed and incubated in SuperSignal, West Dura HRP-luminescence substrate for 30 seconds under shaking at room temperature. Luminescence is measured using a Packard Fusion plate reader. […] Max Plateau is the […] maximum value determined by the dose response fit.
property.label: EC50

The examples below pair each entry with its known result.
CC(=O)C1=C(C)Nc2sc(C(=O)c3ccccc3)c(N)c2C1c1ccccc1 (stereo not shown) [Compound 3] : 797 nM
CCC(=O)C1=C(CC)Nc2sc(C(=O)c3ccccc3Cl)c(N)c2C1c1ccccc1 (stereo not shown) [Compound 82] : 14.8 nM
COC(=O)c1cccc(C(=O)c2sc3c(c2N)C(c2ccccc2)C(C(C)=O)=C(C)N3)c1 (stereo not shown) [Compound 62] : 361 nM

Inquiry: Return EC50 (reported value) for this compound: CCC(=O)C1=C(CC)Nc2sc(C(=O)c3ccc(Cl)cc3Cl)c(N)c2C1c1ccccc1 (stereo not shown) [Compound 70]
Reply text: 51.7 nM

---

Tested on: alpha-MyHC
Assay: alpha-MyHC cytoblot process in neonatal rat ventricular myocytes (NRVM)
Assay type: cell-based
Details: Table 1; NRVM, 72 hours, alpha-MyHC cytoblot; mean ± spread
property.label: EC50 (µM)
Give the quantity in µM, number only.

Inquiry: Provide EC50, system alpha-MyHC, entry CC(=O)C1=C(C)Nc2sc(C(=O)c3ccc(Cl)c(Cl)c3)c(N)c2C1c1ccccc1F (stereo not shown)
Reply text: 0.0864

---

Test system: alpha-MyHC
Experiment: alpha-MyHC cytoblot process in neonatal rat ventricular myocytes (NRVM)
Format: cell-based
Conditions: Table 1; NRVM, 72 hours, alpha-MyHC cytoblot; mean ± spread
Procedure: In vitro activity of each compound is measured using the alpha-MyHC cytoblot process. […] Following incubation with the secondary antibody, wells are washed and incubated in SuperSignal, West Dura HRP-luminescence substrate for 30 seconds under shaking at room temperature. Luminescence is measured using a Packard Fusion plate reader. […] Max Plateau is the […] maximum value determined by the dose response fit.
We begin with a simple list: items and their reported EC50.
Give the quantity in µM, number only.

CCC(=O)C1=C(CC)Nc2sc(C(=O)c3ccccc3Br)c(N)c2C1c1ccccc1 (centres unmarked) [Compound 106] : 0.00893
COc1ccccc1C1C(C(C)=O)=C(C)Nc2sc(C(=O)c3ccccc3)c(N)c21 (centres unmarked) [Compound 18] : 0.876
CCCC(=O)C1=C(CCC)Nc2sc(C(=O)c3cc(Cl)ccc3Cl)c(N)c2C1c1ccccc1 (centres unmarked) [Compound 94] : 0.118
CCC(=O)C1=C(CC)Nc2sc(C(=O)c3ccc(Cl)c(Cl)c3)c(N)c2C1c1ccc(O)cc1Cl (centres unmarked) [Compound 83] : 0.000249
CCC(=O)C1=C(CC)Nc2sc(C(=O)c3ccc(Cl)c(Cl)c3)c(N)c2C1c1cccc([N+](=O)[O-])c1 (centres unmarked) [Compound 58] : 0.129

Inquiry: Return EC50 (reported value) for this molecule: CCC(=O)C1=C(CC)Nc2sc(C(=O)c3ccccc3)c(N)c2C1c1cccnc1 (centres unmarked) [Compound 68]
Reply text: 0.233

Inquiry: Return EC50 (reported value) for this molecule: CC(=O)C1=C(C)Nc2sc(C(=O)c3ccccc3)c(N)c2C1c1ccccc1F (centres unmarked) [Compound 24]
Reply text: 0.273

Inquiry: Return EC50 (reported value) for this molecule: CC(=O)C1=C(C)Nc2sc(C(=O)c3ccncc3)c(N)c2C1c1ccccc1 (centres unmarked) [Compound 10]
Reply text: 2.68

---

We begin with a simple list: items and their reported pEC50.
Test system: alpha-MyHC
Assay: alpha-MyHC cytoblot process in neonatal rat ventricular myocytes (NRVM)
Type: cell-based
API: returns pEC50 as number; meaning -log10 of concentration in mol/L.

The examples below pair each entry with its known result.
CC1=C(C(=O)OCCNC(=O)OC(C)(C)C)C(c2ccccc2F)c2c(sc(C(=O)c3ccc(Cl)c(Cl)c3)c2N)N1 (stereo not shown) : 7.97
CCC1=C(C(=O)OCCN)C(c2ccccc2F)c2c(sc(C(=O)c3ccc(Cl)c(Cl)c3)c2N)N1 (stereo not shown) : 7.64
CC1=C(C(=O)OCCN)C(c2ccccc2)c2c(sc(C(=O)c3ccc(Cl)c(Cl)c3)c2N)N1 (racemic) : 6.49

Now turn to the next compound.
Inquiry: Return pEC50 (reported value) for this compound: CCC1=C(C(=O)OCCNC(=O)OC(C)(C)C)C(c2ccccc2F)c2c(sc(C(=O)c3ccc(Cl)c(Cl)c3)c2N)N1 (stereo not shown)
Reply text: 7.03

---

Test system: alpha-MyHC
Assay: alpha-MyHC cytoblot process in neonatal rat ventricular myocytes (NRVM)
Type: cell-based
Conditions: Table 1; NRVM, 72 hours, alpha-MyHC cytoblot; mean ± spread
Procedure: In vitro activity of each compound is measured using the alpha-MyHC cytoblot process. […] Following incubation with the secondary antibody, wells are washed and incubated in SuperSignal, West Dura HRP-luminescence substrate for 30 seconds under shaking at room temperature. Luminescence is measured using a Packard Fusion plate reader. […] Max Plateau is the […] maximum value determined by the dose response fit.
property.label: pEC50
API: returns pEC50 as number; meaning -log10 of concentration in mol/L.

The examples below pair each entry with its known result.
CC(=O)C1=C(C)Nc2sc(C(=O)c3ccc(Cl)c(Cl)c3)c(N)c2C1c1cc(F)cc(F)c1 (stereo not shown) : 7.34
CCC(=O)C1=C(CC)Nc2sc(C(=O)c3ccc(F)c(F)c3)c(N)c2C1c1ccnc(F)c1 (stereo not shown) : 8.38
CCC(=O)C1=C(CC)Nc2sc(C(=O)c3ccccc3)c(N)c2C1c1cc(F)cc(F)c1 (stereo not shown) : 8.36
CCC(=O)C1=C(CC)Nc2sc(C(=O)c3cccc(Cl)c3)c(N)c2C1c1ccccc1 (stereo not shown) : 8.31
CC(=O)C1=C(C)Nc2sc(C(=O)c3cccc(F)c3)c(N)c2C1c1ccccc1 (stereo not shown) : 7.01
CCC(=O)C1=C(CC)Nc2sc(C(=O)c3ccc(Cl)c(Cl)c3)c(N)c2C1c1c(F)cccc1Cl (stereo not shown) : 7.84
CCC(=O)C1=C(CC)Nc2sc(C(=O)c3ccc(Cl)c(Cl)c3)c(N)c2C1c1c(F)cccc1F (stereo not shown) : 7.68
CCC(=O)C1=C(CC)Nc2sc(C(=O)c3c(Cl)cccc3Cl)c(N)c2C1c1ccccc1F (stereo not shown) : 8.78

Inquiry: Return pEC50 (reported value) for this molecule: CCC(=O)C1=C(CC)Nc2sc(C(=O)c3ccc(Cl)c(Cl)c3)c(N)c2C1c1cccc(F)c1 (stereo not shown)
Reply text: 8.27

Inquiry: Return pEC50 (reported value) for this molecule: CC(=O)C1=C(C)Nc2sc(C(=O)c3ccccc3Cl)c(N)c2C1c1ccccc1 (stereo not shown)
Reply text: 5.90

Inquiry: Return pEC50 (reported value) for this molecule: CCCC(=O)C1=C(CCC)Nc2sc(C(=O)c3ccc(Cl)c(Cl)c3)c(N)c2C1c1ccccc1 (stereo not shown)
Reply text: 6.20

Inquiry: Return pEC50 (reported value) for this molecule: CC(=O)C1=C(C)Nc2sc(C(=O)c3cccnc3)c(N)c2C1c1ccccc1 (stereo not shown)
Reply text: 5.63

Inquiry: Return pEC50 (reported value) for this molecule: CCC(=O)C1=C(CC)Nc2sc(C(=O)c3cccc([N+](=O)[O-])c3)c(N)c2C1c1ccccc1 (stereo not shown)
Reply text: 7.77

Inquiry: Return pEC50 (reported value) for this molecule: CCC(=O)C1=C(CC)Nc2sc(C(=O)c3cc(Cl)ccc3Cl)c(N)c2C1c1ccccc1 (stereo not shown)
Reply text: 7.99

Inquiry: Return pEC50 (reported value) for this molecule: CCC(=O)C1=C(CC)Nc2sc(C(=O)c3cccc(F)c3)c(N)c2C1c1ccccc1 (stereo not shown)
Reply text: 7.84

Inquiry: Return pEC50 (reported value) for this molecule: CC(=O)C1=C(C)Nc2sc(C(=O)c3ccc(Cl)c(Cl)c3)c(N)c2C1c1ccccc1 (stereo not shown)
Reply text: 6.75
